Data provenance is ChEMBL document CHEMBL4689842.

tested on: Fibroblast; experiment: Multiplex assay against human fibroblast; type: toxicity, cell-based; conditions: 24 h, 1 µM, compound concentration 1 uM, replicate 1

| COMPOUND | Population Mitotic Cells (%) |
| --- | --- |
| COc1cc(N2CCC(N(C)C)CC2)ccc1Nc1ncc(Cl)c(Nc2ccccc2P(C)(C)=O)n1 | 3 |
| Cc1nc(Cc2cccc(C(F)(F)F)c2)sc1-c1ccc(C(N)=O)nc1 [TP-024n] | 53 |
| Cl.Cl.Nc1ncnc2c1c(-c1cccc(OCc3ccccc3)c1)cn2[C@H]1C[C@@H](CN2CCC2)C1 | 46 |
| Nc1nc2c(c(N3CCNCC3)n1)CCC1=C2[C@@H]2CCCC[C@@H]2O1 | 44 |
| COc1cc2c(NC3CCN(C(C)C)CC3)nc(N3CCC(F)(F)CC3)nc2cc1OCCCN1CCCC1 | 34 |
| CN(C)C/C=C/C(=O)Nc1cc2c(Nc3ccc(F)c(Cl)c3)ncnc2cc1O[C@H]1CCOC1.O=C(O)/C=C\C(=O)O.O=C(O)/C=C\C(=O)O [AFATINIB DIMALEATE] | 27 |
| CCc1cc2c(cc1CC)CC(NC[C@H](O)c1ccc(O)c3[nH]c(=O)ccc13)C2 | 30 |
| COc1ccc(NS(=O)(=O)c2sc3ccc(Cl)cc3c2C)cc1N1CCNCC1.Cl | 60 |
| Cc1cn(-c2cc(NC(=O)c3ccc4c(c3)CN(c3cncnc3)C[C@@H]4C)cc(C(F)(F)F)c2)cn1 | 7 |
